Reported values of thermal shift delta Tm for individual entries
Test system: LOC_OS04G38480-cb003
Sequence (whole entry): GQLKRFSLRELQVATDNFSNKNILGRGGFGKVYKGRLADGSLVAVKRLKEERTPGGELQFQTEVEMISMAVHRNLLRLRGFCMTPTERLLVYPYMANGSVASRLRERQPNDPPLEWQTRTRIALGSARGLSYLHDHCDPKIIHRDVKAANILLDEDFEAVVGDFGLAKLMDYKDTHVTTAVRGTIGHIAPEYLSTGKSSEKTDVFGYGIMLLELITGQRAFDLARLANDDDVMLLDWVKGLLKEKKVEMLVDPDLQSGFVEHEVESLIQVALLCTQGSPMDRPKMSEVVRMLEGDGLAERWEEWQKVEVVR
assay.explanation: thermal shift delta Tm vs DMSO control; higher = stronger stabilization (binding);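 further: purified Escherichia coli-expressed rice kinase domain construct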
condition.details: 12.5 µM; protein concentration 2 µM
parameter.measured: thermal shift delta Tm (°C)

INSERT INTO measurements (compound, target_or_test_system, assay_result) VALUES
  ('CCN1CCN(Cc2ccc(Nc3ncc(F)c(-c4cc(F)c5nc(C)n(C(C)C)c5c4)n3)nc2)CC1', 'LOC_OS04G38480-cb003', 1.91),
  ('O=c1nc(N2CCOCC2)oc2c(-c3cccc4c3sc3ccccc34)cccc12', 'LOC_OS04G38480-cb003', 0.64),
  ('Oc1ccc(-c2nc(-c3ccc(F)cc3)c(-c3ccncc3)[nH]2)cc1', 'LOC_OS04G38480-cb003', 1.53),
  ('CCCNC(=O)Nc1ccc(Oc2ncnc3cc(OC)c(OC)cc23)cc1Cl', 'LOC_OS04G38480-cb003', -0.17),
  ('Cn1ncc(Cl)c1-c1cc(C(=O)N[C@H](CN)Cc2cccc(F)c2)sc1Cl', 'LOC_OS04G38480-cb003', 0.52),
  ('CC(C)(C#N)c1ccc(N2C(=O)OCc3cnc4ccc(-c5cnc6ccccc6c5)cc4c32)cc1', 'LOC_OS04G38480-cb003', 0.8),
  ('Cc1ccc(C(=O)Nc2ccc(CN3CCN(C)CC3)c(C(F)(F)F)c2)cc1C#Cc1cnc2[nH]ncc2c1 [GZD824 Dimesylate]', 'LOC_OS04G38480-cb003', 1.28),
  ('O=C1Cc2c([nH]c3ccc(Br)cc23)-c2ccccc2N1 [Kenpaullone]', 'LOC_OS04G38480-cb003', 2.14),
  ('C[C@@H](Oc1ccc2[nH]nc(/C=C/c3cnn(CCO)c3)c2c1)c1c(Cl)cncc1Cl', 'LOC_OS04G38480-cb003', 5.56),
  ('O=C(Nc1cccnc1)c1cc(-c2ccnc(F)c2)ccc1OCc1ccccc1', 'LOC_OS04G38480-cb003', 1.76),
  ('CCN1/C(=C/C(C)=O)Sc2ccc(OC)cc21', 'LOC_OS04G38480-cb003', 0.6),
  ('Cc1cc(Nc2cc(CN3CCOCC3)c3nc(C)c(Cc4ccc(Cl)cc4F)n3n2)n[nH]1', 'LOC_OS04G38480-cb003', 2.46),
  ('CCCCCCCCCCCCCCCCCCOP(=O)([O-])OC1CC[N+](C)(C)CC1 [Perifosine (KRX-0401)]', 'LOC_OS04G38480-cb003', -0.3),
  ('CN(C)C/C=C/C(=O)Nc1ccc(C(=O)Nc2cccc(Nc3ncc(Cl)c(-c4c[nH]c5ccccc45)n3)c2)cc1', 'LOC_OS04G38480-cb003', 4.69),
  ('CN(C[C@@H]1COCCO1)S(=O)(=O)Nc1ccc2ccc3ncc(-c4cnn(C)c4)cc3c(=O)c2c1', 'LOC_OS04G38480-cb003', 2.89),
  ('COc1cc(C(=O)N2CCC(N3CCN(C)CC3)CC2)ccc1Nc1ncc2c(n1)N(C)c1ccccc1C(=O)N2C', 'LOC_OS04G38480-cb003', 3.81),
  ('O=C1c2c(O)cc(O)cc2OC(c2ccc(O)c(O)c2)C1O (configuration not stated) [Taxifolin (Dihydroquercetin)]', 'LOC_OS04G38480-cb003', 0.17),
  ('CC#CC(=O)N1CCC[C@H]1c1nc(-c2ccc(C(=O)Nc3ccccn3)cc2)c2c(N)nccn12 [Acalabrutinib (ACP-196)]', 'LOC_OS04G38480-cb003', 1.22),
  ('Cc1ncc(CCCN(C)C)cc1Nc1ncc2c(n1)-c1ccc(C(F)(F)F)cc1NC(=S)C2', 'LOC_OS04G38480-cb003', 0.51),
  ('Cc1cc(Nc2cc(N3CCN(C)CC3)nc(/C=C/c3ccccc3)n2)n[nH]1 [ENMD-2076 L-(+)-Tartaric acid]', 'LOC_OS04G38480-cb003', 2.07),
  ('C=CC(=O)N1CCC(Oc2cc3c(Nc4ccc(Cl)c(Cl)c4F)ncnc3cc2OC)CC1 [Poziotinib (HM781-36B)]', 'LOC_OS04G38480-cb003', 1.12),
  ('C=CC(=O)Nc1cc(Nc2nccc(-c3cn(C)c4ccccc34)n2)c(OC)cc1N(C)CCN(C)C [Osimertinib (AZD9291)]', 'LOC_OS04G38480-cb003', 2.86);

###

Test system: LOC_OS01G70970-cb002
assay.explanation: thermal shift delta Tm vs DMSO control; higher = stronger stabilization (binding)
condition.details: 12.5 µM; protein concentration 2 µM
Class 1: thermal shift delta Tm at least 0.4 °C. Class -1: thermal shift delta Tm below 0.4 °C.

INSERT INTO measurements (compound, qualitative_label) VALUES
  ('CO[C@H]1C[C@@H]2CC[C@@H](C)[C@@](O)(O2)C(=O)C(=O)N2CCCC[C@H]2C(=O)O[C@H]([C@H](C)C[C@@H]2CC[C@H](n3cnnn3)[C@H](OC)C2)CC(=O)[C@H](C)/C=C(\C)[C@@H](O)[C@@H](OC)C(=O)[C@H](C)C[C@H](C)/C=C/C=C/C=C/1C', 1),
  ('CCNc1nc(Nc2cc(F)c(C(=O)N3CCOCC3)cc2OC)ncc1C(F)(F)F', 1),
  ('CN1CC(O)C2=C/C(=N/NC(N)=O)C(=O)C=C21 (centres undefined)', -1),
  ('CCc1cccc(CC)c1NC(=O)N1Cc2[nH]nc(NC(=O)c3ccc(N4CCN(C)CC4)cc3)c2C1', -1),
  ('CC(C)(O)CC(=O)NCCn1ccc2ncnc(Nc3ccc(Oc4cccc(C(F)(F)F)c4)c(Cl)c3)c21', 1),
  ('O=C1NC(=O)/C(=C/c2ccc(-c3ccc(F)cc3O)o2)S1', 1),
  ('CCc1cc(Nc2nccc(-c3c(-c4ccc(OC)c(C(=O)Nc5c(F)cccc5F)c4)nc4ccccn34)n2)c(OC)cc1N1CCC(N2CCN(S(C)(=O)=O)CC2)CC1', -1),
  ('CNC(=O)c1ccc(C)c(-n2c(C)cc(OCc3ccc(F)cc3F)c(Br)c2=O)c1', -1),
  ('OCCn1cc(-c2cnc3nnn(Cc4ccc5ncccc5c4)c3n2)cn1', -1),
  ('O=C(Nc1nc2cccc(-c3ccc(CN4CCS(=O)(=O)CC4)cc3)n2n1)C1CC1', -1),
  ('O=C(NC[C@H](O)CO)c1ccncc1Nc1ccc(I)cc1F', -1),
  ('COc1cc(OC)c(/C=C/S(=O)(=O)Cc2ccc(OC)c(NCC(=O)O)c2)c(OC)c1', -1),
  ('COc1cc2c(c(OC)c1OC)-c1c(cc3c(c1OC)OCO3)CC(C)C(C)C2 (centres undefined) [Schisandrin B (Sch B)]', 1),
  ('CN1CCN(S(=O)(=O)c2ccc(-c3cnc(N)c(C(=O)Nc4cccnc4)n3)cc2)CC1', 1),
  ('CC(C)(C)NS(=O)(=O)c1cncc(-c2cc(F)c3nc(N)nn3c2)c1', 1),
  ('COc1cc(Nc2ncc(F)c(Nc3ccc4c(n3)N(COP(=O)(O)O)C(=O)C(C)(C)O4)n2)cc(OC)c1OC [R788 (Fostamatinib) Disodium]', 1),
  ('N#C/C(=C(/N)Sc1ccc(N)cc1)c1ccccc1C(F)(F)F', -1),
  ('COc1ccc(CNC(=O)Nc2ncc([N+](=O)[O-])s2)cc1', 1),
  ('Cc1cnc(NC(=O)Nc2cc(Br)c(C)cc2OC[C@@H]2CNCCO2)cn1', -1),
  ('Cc1cc(Nc2nc(N[C@@H](C)c3ccc(F)cc3)c(C#N)cc2F)n[nH]1', 1),
  ('Cc1c(CN2CCN(C(=O)[C@H](C)O)CC2)sc2c(N3CCOCC3)nc(-c3cnc(N)nc3)nc12', -1),
  ('C=CC(=O)Nc1cccc(Sc2nc(Nc3ccc(N4CCN(C)CC4)cc3)ncc2Cl)c1', 1),
  ('CCn1c(=O)c(-c2ccc(Cl)cc2Cl)cc2cnc(Nc3ccc(N4CCNCC4)c(F)c3)nc21', 1);

###

System: LOC_OS02G07810-cb001
assay.explanation: thermal shift delta Tm vs DMSO control; higher = stronger stabilization (binding)
condition.details: 12.5 µM; protein concentration 2 µM
parameter.measured: thermal shift delta Tm (°C)

INSERT INTO measurements (compound, assay_result) VALUES
  ('CC(C)N(CCC(=O)c1ccc2ccccc2c1)Cc1ccccc1', 0.33),
  ('O=C(/C=C/c1ccc(O)c(O)c1)c1ccc(O)cc1O [Butein]', 1.6),
  ('Cc1n[nH]c2ncc(C(=O)N3CCC[C@H]3c3ccc(Cl)cc3)cc12', -0.7);
